Entry source: patent US10435361B2

Tested on: PBMCs
Test: Cell mitosis assay in PBMCs
Type: cell-based
Conditions: Homo sapiens, PBMC, 5 μg/mL

| cpd_smiles | inhibition at 5 µg/mL (%) |
| --- | --- |
| COCCOCCOCCOc1cc(Nc2nccc(Oc3ccc(NC(=O)Nc4cc(C(C)(C)C)cc(C(=O)NC5COC5)c4OC)c4ccccc34)n2)cc(OC)c1 | 44.3 |
| COCCOCCOc1cc(Nc2nccc(Oc3ccc(NC(=O)Nc4cc(C(C)(C)C)cc(NS(C)(=O)=O)c4OC)c4ccccc34)n2)cc(OC)c1 | 45 |
| CNC(=O)c1cc(C(C)(C)C)cc(NC(=O)Nc2ccc(Oc3ccnc(Nc4cc(OC)cc(OCCOCCOCCOC)c4)n3)c3ccccc23)c1OC | 46.1 |

----------
Test: Plasma pharmacokinetics in rats, single intravenous or oral administration
Type: in vivo
Conditions: male, Wistar, rat, po, 5 mg/kg, read-out: Median plasma concentration
endpoint: concentration at 12 h (ng/mL)

| cpd_smiles | endpoint_unit | meas_value |
| --- | --- | --- |
| C#Cc1cc(Nc2nccc(Oc3ccc(NC(=O)Nc4cc(C(C)(C)C)cc(NS(C)(=O)=O)c4OC)c4ccccc34)n2)cc(C(=O)NCCOCCOCCOC)c1 | ng/mL | 0 |
| COCCOCCOCCNC(=O)c1cc(Nc2cc(Oc3ccc(NC(=O)Nc4cc(C(C)(C)C)cc(NS(C)(=O)=O)c4OC)c4ccccc34)ccn2)cc(OC)c1 | ng/mL | 0 |

----------
Test: Plasma pharmacokinetics and total colon tissue distribution in mice, single oral administration
Format: in vivo, C57BL/6 mice
Conditions: male, C57BL/6, mouse, 5 mg/kg, read-out: Median plasma concentration

| molecule | endpoint_unit | concentration at 1 h |
| --- | --- | --- |
| COCCOCCOCCNC(=O)c1cc(Nc2cc(Oc3ccc(NC(=O)Nc4cc(C(C)(C)C)cc(NS(C)(=O)=O)c4OC)c4ccccc34)ccn2)cc(OC)c1 [Example 3] | ng/mL | 0 |
| C#Cc1cc(Nc2nccc(Oc3ccc(NC(=O)Nc4cc(C(C)(C)C)cc(NS(C)(=O)=O)c4OC)c4ccccc34)n2)cc(C(=O)NCCOCCOCCOC)c1 [Example 16] | ng/mL | 0 |

----------
# maps each entry to its inhibition at 5 µg/mL
Tested on: PBMCs
Test: Cell mitosis assay in PBMCs
Type: cell-based
Details: Homo sapiens, PBMC, 5 μg/mL
endpoint: inhibition at 5 µg/mL (%)

| molecule | endpoint | meas_value |
| --- | --- | --- |
| COCCOCCNC(=O)c1cc(Nc2cc(Oc3ccc(NC(=O)Nc4cc(C(C)(C)C)cc(NS(C)(=O)=O)c4OC)c4ccccc34)ccn2)cc(OC)c1 [85(u)] | inhibition at 5 µg/mL | 38.4 |
| COCCOCCOCCOc1cc(Nc2nccc(Oc3ccc(NC(=O)Nc4cc(C(C)(C)C)cc(NS(C)(=O)=O)c4OC)c4ccccc34)n2)cc(OC)c1 [Example 4] | inhibition at 5 µg/mL | 43 |
| C#Cc1cc(Nc2nccc(Oc3ccc(NC(=O)Nc4cc(C(C)(C)C)cc(NS(C)(=O)=O)c4OC)c4ccccc34)n2)cc(C(=O)NCCN2CCOCC2)c1 [Example 1] | inhibition at 5 µg/mL | 22.1 |
| COCCOCCOCCOc1cc(Nc2nccc(Oc3ccc(NC(=O)Nc4cc(C(C)(C)C)cc(NS(C)(=O)=O)c4OC)c4ccccc34)n2)cc(OC)c1Cl [Example 58] | inhibition at 5 µg/mL | 41.7 |
| C#Cc1cc(Nc2nccc(Oc3ccc(NC(=O)Nc4cc(C(C)(C)C)cc(NS(C)(=O)=O)c4OC)c4ccccc34)n2)cc(C(=O)N[C@H](C)CN2CCOCC2)c1 [Example 56] | inhibition at 5 µg/mL | 46.4 |
| COc1cc(Nc2cc(Oc3ccc(NC(=O)Nc4cc(C(C)(C)C)cc(NS(C)(=O)=O)c4OC)c4ccccc34)ccn2)cc(C(=O)NCCN2CCN(C)CC2)c1 [Example 79] | inhibition at 5 µg/mL | 54.4 |
